# experiment.summary: in vitro
# Type: cell-based
Reported EC50 values follow for various compounds
Entry rule: numbers only, all in mg/L.

Please review the following examples before continuing.
                                item_smiles  unit_of_measurement  recorded_measurement
0  N=C(N)NCCCCC(=O)Nc1cc(Br)cc(NC(=O)c2cc(C(=O)Nc3cc(Br)cc(NC(=O)CCCCNC(=N)N)c3SCCO)ncn2)c1SCCO                 mg/L                    59
1  N=C(N)NCCCCOc1cc(OCCCCNC(=N)N)c(C(F)(F)F)cc1NC(=O)c1cc(C(=O)Nc2cc(C(F)(F)F)c(OCCCCNC(=N)N)cc2OCCCCNC(=N)N)ncn1                 mg/L                     2

# input for lookup
EC50 reported for this compound N#Cc1cccc(C(=O)Nc2cc(NC(=O)c3cc(C(=O)Nc4cc(NC(=O)c5cccc(C#N)c5)cc(C(F)(F)F)c4)c(OCCN)cc3OCCN)cc(C(F)(F)F)c2)c1 : 251

Sourced from patent US20150094294A1
